experiment: Cytotoxicity against LPS-stimulated mouse RAW264.7 cells assessed as cell viability at 10 ug/ml after 24 hrs by MTT assay relative to control; type: cell-based; conditions: LPS-stimulated RAW264.7 cells, read-out: Activity
QUANTITY NAME: viability at 24 h, 10 ug/ml (%)

INSERT INTO measurements (smi, measured) VALUES
  ('COc1cc(CCCc2cccc(O)c2)ccc1O', 76.1),
  ('COc1ccc(/C=C/C(=O)c2ccc(OC)cc2O)cc1', 72.6),
  ('COc1ccc(C(=O)/C=C/c2ccc(OC)c(OC)c2)c(O)c1', 70),
  ('COc1cccc(CCCc2cccc(O)c2)c1OC', 69.6),
  ('COc1ccc(C(=O)/C=C/c2ccc(OC)c(OC)c2OC)c(O)c1', 75.3),
  ('COc1ccc(CCCc2cccc(O)c2)cc1OC', 78.8),
  ('COc1ccc(OC)c(CCCc2cccc(O)c2)c1', 92.2),
  ('COc1ccc(C(=O)/C=C/c2ccc(OC)cc2OC)c(O)c1', 68),
  ('COc1ccc(C(=O)CCc2ccc3c(c2)OCO3)c(OC)c1', 81),
  ('O=C(CCc1ccc2c(c1)OCO2)c1ccc(O)cc1', 82.9),
  ('COc1ccc(/C=C/C(=O)c2ccc(OC)c(OC)c2)cc1O', 73.5),
  ('COc1ccc(CCCc2ccc(O)c(OC)c2)cc1', 66.3);

----------
experiment: Cytotoxicity against LPS-stimulated mouse RAW264.7 cells assessed as cell viability at 2.5 ug/ml after 24 hrs by MTT assay relative to control; format: cell-based; conditions: LPS-stimulated RAW264.7 cells, read-out: Activity
List of viability at 24 h, 2.5 ug/ml values.
QUANTITY NAME: viability at 24 h, 2.5 ug/ml (%)

INSERT INTO assay_data (smi, measured) VALUES
  ('COc1ccc(CCCc2ccc(OC)cc2OC)c(O)c1', 97.7),
  ('COc1ccc(CCC(=O)c2ccc(OC)c(OC)c2)cc1OC', 98),
  ('COc1ccc(CCCc2cccc(O)c2)cc1OC', 98.5),
  ('COc1ccc(C(=O)/C=C/c2ccc(OC)c(OC)c2OC)c(O)c1', 96.6),
  ('O=C(/C=C/c1ccc2c(c1)OCO2)c1ccc(O)cc1', 95.2),
  ('COc1ccc(C(=O)CCc2ccc(OC)c(OC)c2)c(O)c1', 89),
  ('COc1cc(/C=C/C(=O)c2cccc(O)c2)ccc1O', 94),
  ('COc1cccc(CCC(=O)c2cccc(O)c2)c1OC', 94),
  ('COc1ccc(C(=O)/C=C/c2ccc3c(c2)OCO3)c(O)c1', 91.7),
  ('COc1ccc(CCCc2ccc3c(c2)OCO3)c(OC)c1', 97.7),
  ('COc1ccc(C(=O)/C=C/c2ccc(OC)cc2OC)c(O)c1', 90.3),
  ('COc1ccc(OC)c(CCC(=O)c2cccc(O)c2)c1', 96.8);

----------
Parameter inhibition at 1.25 µg/mL: see the listing below.
test system: RAW264.7; assay: Antiinflammatory activity in mouse RAW264.7 cells assessed as inhibition of LPS induced iNOS-dependent nitric oxide production at 1.25 ug/ml after 24 hrs by Griess assay relative to control; format: functional; conditions: RAW264.7, 24 h
QUANTITY NAME: inhibition at 1.25 µg/mL (%)

INSERT INTO results (smi, measured) VALUES
  ('COc1ccc(CCCc2cccc(OC)c2OC)c(O)c1', 21.5),
  ('COc1cc(C(=O)/C=C/c2ccc3c(c2)OCO3)ccc1O', 5.3),
  ('COc1ccc(CCCc2ccc(OC)c(OC)c2)cc1OC', 8.4),
  ('COc1ccc(CCCc2cccc(O)c2)cc1', 22.2),
  ('COc1ccc(/C=C/C(=O)c2ccc(OC)c(OC)c2)cc1', 5.1),
  ('COc1ccc(OC)c(CCCc2cccc(O)c2)c1', 1.5),
  ('COc1ccc(CCCc2ccc(OC)c(OC)c2)cc1', 12.9);

----------
experiment: Cytotoxicity against LPS-stimulated mouse RAW264.7 cells assessed as cell viability at 1.25 ug/ml after 24 hrs by MTT assay relative to control; assay type: cell-based; conditions: LPS-stimulated RAW264.7 cells, read-out: Activity
Known viability at 24 h, 1.25 ug/ml of a selection of compounds
QUANTITY NAME: viability at 24 h, 1.25 ug/ml (%)

INSERT INTO measurements (smi, quantity_name, measured) VALUES
  ('COc1ccc(CCC(=O)c2ccc(O)c(OC)c2)cc1', 'viability at 24 h, 1.25 ug/ml', 90),
  ('COc1ccc(C(=O)/C=C/c2ccc(OC)cc2OC)c(O)c1', 'viability at 24 h, 1.25 ug/ml', 98.7),
  ('COc1ccc(CCCc2cccc(O)c2)cc1OC', 'viability at 24 h, 1.25 ug/ml', 99.9),
  ('COc1ccc(/C=C/C(=O)c2ccc(OC)c(OC)c2)cc1O', 'viability at 24 h, 1.25 ug/ml', 91.4),
  ('COc1ccc(CCC(=O)c2cccc(O)c2)c(OC)c1', 'viability at 24 h, 1.25 ug/ml', 92.1),
  ('COc1ccc(C(=O)CCc2ccc(OC)cc2OC)c(O)c1', 'viability at 24 h, 1.25 ug/ml', 97.8),
  ('COc1ccc(C(=O)CCc2ccc(OC)c(OC)c2)c(O)c1', 'viability at 24 h, 1.25 ug/ml', 91.8),
  ('COc1ccc(CCCc2ccc(O)c(OC)c2)cc1', 'viability at 24 h, 1.25 ug/ml', 99.2),
  ('COc1ccc(OC)c(CCCc2cccc(O)c2)c1', 'viability at 24 h, 1.25 ug/ml', 101),
  ('COc1ccc(CCCc2ccc(OC)cc2OC)c(O)c1', 'viability at 24 h, 1.25 ug/ml', 100),
  ('COc1cc(CCC(=O)c2cccc(O)c2)ccc1O', 'viability at 24 h, 1.25 ug/ml', 100),
  ('COc1ccc(CCCc2cccc(O)c2)c(OC)c1', 'viability at 24 h, 1.25 ug/ml', 98.5);

----------
Overview of recorded IC50 for various compounds
tested on: RAW264.7; assay: Antiinflammatory activity in mouse RAW264.7 cells assessed as inhibition of LPS induced iNOS-dependent nitric oxide production after 24 hrs by Griess assay; format: functional, cell-based; details: RAW264.7, 24 h
QUANTITY NAME: IC50 (µg/mL)

INSERT INTO measurements (smi, quantity_name, unit_label, sign, measured) VALUES
  ('COc1ccc(OC)c(CCC(=O)c2cccc(O)c2)c1', 'IC50', 'µg/mL', '>', 10),
  ('COc1ccc(C(=O)CCc2ccc(OC)c(OC)c2OC)c(O)c1', 'IC50', 'µg/mL', '>', 10),
  ('COc1cc(CCCc2cccc(OC)c2OC)ccc1O', 'IC50', 'µg/mL', '=', 2.57),
  ('O=C(CCc1ccc2c(c1)OCO2)c1ccc(O)cc1', 'IC50', 'µg/mL', '=', 8.72),
  ('COc1ccc(CCC(=O)c2cccc(O)c2)cc1', 'IC50', 'µg/mL', '>', 10),
  ('O=C(/C=C/c1ccc2c(c1)OCO2)c1ccc(O)cc1', 'IC50', 'µg/mL', '=', 9.56),
  ('COc1ccc(CCCc2cccc(OC)c2OC)c(O)c1', 'IC50', 'µg/mL', '=', 8.79),
  ('COc1ccc(CCC(=O)c2cccc(O)c2)cc1OC', 'IC50', 'µg/mL', '=', 6.58),
  ('COc1ccc(/C=C/C(=O)c2ccc(OC)c(OC)c2)cc1', 'IC50', 'µg/mL', '=', 2.43),
  ('COc1cc(C(=O)CCc2cccc(OC)c2OC)ccc1O', 'IC50', 'µg/mL', '>', 10),
  ('COc1cc(C(=O)CCc2ccc3c(c2)OCO3)ccc1O', 'IC50', 'µg/mL', '=', 9.44),
  ('COc1ccc(C(=O)/C=C/c2ccc3c(c2)OCO3)c(OC)c1', 'IC50', 'µg/mL', '=', 2.43),
  ('COc1ccc(OC)c(CCCc2cccc(O)c2)c1', 'IC50', 'µg/mL', '>', 10),
  ('COc1ccc(C(=O)CCc2cc(OC)ccc2OC)c(O)c1', 'IC50', 'µg/mL', '>', 10),
  ('COc1ccc(C(=O)CCc2ccc(OC)c(OC)c2)c(O)c1', 'IC50', 'µg/mL', '=', 7.86),
  ('COc1ccc(CCCc2cccc(O)c2)cc1OC', 'IC50', 'µg/mL', '>', 10),
  ('COc1cccc(CCCc2cccc(O)c2)c1OC', 'IC50', 'µg/mL', '=', 8.09),
  ('COc1ccc(C(=O)CCc2cccc(OC)c2OC)c(O)c1', 'IC50', 'µg/mL', '>', 10),
  ('Oc1ccc(CCCc2ccc3c(c2)OCO3)cc1', 'IC50', 'µg/mL', '=', 5.18),
  ('COc1cc(CCCc2ccc3c(c2)OCO3)ccc1O', 'IC50', 'µg/mL', '=', 3.64),
  ('COc1cc(C(=O)/C=C/c2ccc3c(c2)OCO3)ccc1O', 'IC50', 'µg/mL', '=', 6.3),
  ('COc1ccc(OC)c(/C=C/C(=O)c2cccc(O)c2)c1', 'IC50', 'µg/mL', '=', 2.42),
  ('COc1ccc(CCCc2ccc(OC)c(OC)c2)cc1OC', 'IC50', 'µg/mL', '=', 9.47),
  ('COc1ccc(C(=O)/C=C/c2ccc3c(c2)OCO3)c(O)c1', 'IC50', 'µg/mL', '=', 1.25);
